- method.notes: refractive index (Na D-line) (dimensionless)
- particulars: 323.15 K; 100.7 kPa; Liquid; Standard Abbe refractometry
reported.property: refractive index

                                   compound  reported_property  endpoint_result
0  CCCCn1cc[n+](C)c1.F[P-](F)(F)(F)(F)F [1-butyl-3-methylimidazolium hexafluorophosphate]   refractive index          1.40312
1                 C1CCOC1 [tetrahydrofuran]   refractive index          1.39083
2  CCCCCCCC[n+]1ccn(C)c1.F[P-](F)(F)(F)(F)F [1-octyl-3-methylimidazolium hexafluorophosphate]   refractive index          1.41601
3  CCCCCCn1cc[n+](C)c1.F[P-](F)(F)(F)(F)F [1-hexyl-3-methylimidazolium hexafluorophosphate]   refractive index          1.41175
